Entries and their Plasma clearance Cl
Procedure Summary: In vivo pharmacokinetic and oral bioavailability
Condition Details: i.v. 2.5 mg/kg, male Swiss mice
Enter the number, and then the unit.

O=C1CCc2cc(/C=C/C(=O)N3CC4C=C(c5ccncc5)CC4C3)cnc2N1 (stereo not shown)    36.7 mL/min/kg
O=C1CCc2cc(/C=C/C(=O)N3CC4C=C(c5ccccc5)CC4C3)cnc2N1 (stereo not shown)    5.83 mL/min/kg
O=C1CCc2cc(/C=C/C(=O)N3CC4C=C(c5ccsc5)CC4C3)cnc2N1 (stereo not shown)    10.7 mL/min/kg

Now look at this entry.
Exam item: Fill in the blank: the reported Plasma clearance Cl of O=C1CCc2cc(/C=C/C(=O)N3C[C@@H]4CC(c5ccccc5)=C[C@@H]4C3)cnc2N1 (single isomer, unassigned) is ____.
Marked response: 5.5 mL/min/kg

----------
Experimental Target: S. aureus ATCC 29213 FabI (Staphylococcus aureus (strain MRSA252), UniProt Q6GI75)
Procedure Summary: Staphylococcus aureus FabI enzyme inhibition assay
Type: biochemical
Condition Details: pH 6.5, 30 minutes at room temperature
Method: FabI enzyme inhibition assays were carried out in half-area, 384-well microtitre plates. Compounds were evaluated in 40-μl assay mixtures containing 100 mM NaADA, pH 6.5 (ADA=N-[2-acetamido]-2iminodiacetic acid), 250 μM crotonoyl-CoA, 625 μM NADH and 50 μg/ml S. aureus ATCC 29213 FabI. Inhibitors were typically varied over the range of 50 to 0.39 μM. […] The consumption of NADH was monitored by measuring the change in absorbance at 340. […]
Quantity Measured: FabI IC50 (µg/mL)
Reply with just the number (in µg/mL).

Exam item: Param item = O=C1CCc2cc(/C=C/C(=O)N3CC4C=C(c5ccccc5)CC4C3)cnc2N1 (stereo not shown) [compound 1] ; retrieve measured FabI IC50.
Marked response: 0.32

Exam item: # get_value(readout='FabI IC50', item= O=C1CCc2cc(/C=C/C(=O)N3CC4C=C(c5ccccc5F)CC4C3)cnc2N1 (stereo not shown) [compound 21] )
Marked response: 0.65

Exam item: Quick one: FabI IC50 for COc1ccccc1N1C[C@H]2CN(C(=O)/C=C/c3cnc4c(c3)CCC(=O)N4)C[C@H]2C1 [compound 8] ?
Marked response: 0.50

Exam item: What FabI IC50 value was documented for this compound, O=C1CCc2cc(/C=C/C(=O)N3C[C@@H]4CN(c5cccnc5)C[C@@H]4C3)cnc2N1 [compound 20] ?
Marked response: 1.07

Exam item: Query: FabI IC50; subject: N#Cc1ccccc1C1=CC2CN(C(=O)/C=C/c3cnc4c(c3)CCC(=O)N4)CC2C1 (stereo not shown) [compound 23]
Marked response: 0.41

Exam item: Look up FabI IC50 for this compound: C#CN1C[C@@H]2CN(C(=O)/C=C/c3cnc4c(c3)CCC(=O)N4)C[C@@H]2C1 [compound 30]
Marked response: 2.66

Exam item: Which FabI IC50 value belongs to O=C1CCc2cc(/C=C/C(=O)N3C[C@@H]4CN(c5nccs5)C[C@@H]4C3)cnc2N1 [compound 24] ?
Marked response: 0.58

Exam item: So what's the measured FabI IC50 for this one? O=C1CCc2cc(/C=C/C(=O)N3C[C@@H]4CC(c5ccsc5)=C[C@@H]4C3)cnc2N1 [compound 45]
Marked response: 0.45

Exam item: Reported FabI IC50, compound O=C1CCc2cc(/C=C/C(=O)N3CC4CC(n5ccnn5)CC4C3)cnc2N1 (stereo not shown) [compound 38] : ____
Marked response: 2.08

# credit: patent US9617262B2
